Ref: ChEMBL document CHEMBL1139344

Experiment: Aqueous solubility in phosphate buffered saline
Format: physicochemical
READOUT_LABEL: solubility (µM)

Nc1nc(-c2ccco2)c2nnn(Cc3ccccc3)c2n1: 30
Nc1nc(-c2ccco2)c2nnn(Cc3ccc([N+](=O)[O-])cc3)c2n1: 30
COC(=O)c1cccc(Cn2nnc3c(-c4ccco4)nc(N)nc32)c1: 30
Nc1nc(-c2ccco2)c2nnn(Cc3ccccc3F)c2n1: 30
Nc1nc(-c2ccco2)c2nn[nH]c2n1: 30

---

Experiment: Half life in Sprague-Dawley rat at 2 mg/kg, iv
Format: ADME, organism-based
Parameters: dose 2 mg/kg, route intravenous
Settings: in vivo
READOUT_LABEL: half-life (h)
Write down the numeric answer in h and omit the unit.

Query (compound): Cc1cc(Cn2nnc3c(-c4ccco4)nc(N)nc32)ccc1N [VIPADENANT] ; field requested: half-life 2
